Answer each item with its documented TGI.
# Tested on: SF-295 CNS
# assay explanation: NCI tumour cell line growth inhibition, 48 h

Return reported TGI for target or system SF-295 CNS, item Cc1cc2c(cc1C)[n+](=O)c(N1CCN(c3ccc([N+](=O)[O-])cc3)CC1)c(C#N)n2[O-] . 37.8 µM

Return reported TGI for target or system SF-295 CNS, item Cc1ccc(CS(=O)(=O)C/N=c2\sc3ccccc3nc2/C=C(\O)c2ccc(Cl)cc2)cc1 . > 10 µM

Return reported TGI for target or system SF-295 CNS, item O=C(Nc1ccc(Cl)cc1)/C(Cc1cccc[n+]1[O-])=N\Nc1ccc([N+](=O)[O-])cc1[N+](=O)[O-] . > 100 µM

Return reported TGI for target or system SF-295 CNS, item C[C@H]1CC[C@@H]2[C@@H](C)[C@H]3[C@H](C[C@H]4[C@@H]5CC=C6C[C@@H](O)CC[C@]6(C)[C@H]5C[C@H](O)[C@]34C)N2C1 . > 100 µM

Return reported TGI for target or system SF-295 CNS, item Cc1cc(C(=O)N2CCN(Cc3ccccc3)CC2)c(C)o1 . > 100 µM

Return reported TGI for target or system SF-295 CNS, item CCCCN(CCCC)CCCCNc1c(C)cnc2cc(Cl)ccc12 . 50.8 µM

Return reported TGI for target or system SF-295 CNS, item CN(C)C=Nc1cccc2cnccc12 . > 100 µM

Return reported TGI for target or system SF-295 CNS, item N#CCC(=O)N/N=C1\C(=O)N(c2ccc(Cl)cc2)C(=O)C(=O)C1c1nc2ccccc2o1 (configuration not stated) . > 100 µM

Return reported TGI for target or system SF-295 CNS, item C=C1C(=O)O[C@@H]2C[C@@H]1CC[C@@]1(C)O[C@@H]1CC[C@@]1(C)O[C@@H]1CC[C@@]2(C)O . 60.6 µM

Return reported TGI for target or system SF-295 CNS, item CCOC(=O)c1cccc([N+](=O)[O-])c1N . > 100 µM

Return reported TGI for target or system SF-295 CNS, item Cc1ccc(S(=O)(=O)Oc2cc(S(=O)(=O)O)cc3cc(S(=O)(=O)O)cc(N)c23)cc1 . > 100 µM

Return reported TGI for target or system SF-295 CNS, item O=P1(Oc2ccc(Cl)cc2)OCCS1 (configuration not stated) . > 100 µM

Return reported TGI for target or system SF-295 CNS, item CC1(C)CN=C(Nc2ccc(Cl)cc2)S1 . > 100 µM

Return reported TGI for target or system SF-295 CNS, item Clc1ccc(OC2CCO2)cc1Cl (configuration not stated) . > 100 µM

Return reported TGI for target or system SF-295 CNS, item O=C1NC(=O)C(C(c2ccc(Cl)cc2)C2C(=O)NC(=O)NC2=O)C(=O)N1 . > 100 µM

Return reported TGI for target or system SF-295 CNS, item COc1ccc(C2ON(c3ccccn3)CC=C2C)cc1 (configuration not stated) . > 100 µM

Return reported TGI for target or system SF-295 CNS, item CCCN(CCCCN1C(=O)c2ccccc2C1=O)CC1COc2ccccc2O1 (configuration not stated) . > 100 µM

Return reported TGI for target or system SF-295 CNS, item N#Cc1c(-c2ccccc2)cc(-c2ccccc2)n(CCCCC(=O)NO)c1=O . 4.56 µM

Return reported TGI for target or system SF-295 CNS, item O=C(Nc1ccccc1Br)c1cccc([N+](=O)[O-])c1O . 25.2 µM

Return reported TGI for target or system SF-295 CNS, item O=C(Nc1ccccc1C(=O)O)/C(=C/c1ccccc1)NC(=O)c1ccccc1 . > 100 µM

Return reported TGI for target or system SF-295 CNS, item CC(=O)OC1CCC2(C)C(=CCC3C2CCC2(C)C(C(C)C(=O)O)CCC32)C1 (configuration not stated) . > 100 µM

Return reported TGI for target or system SF-295 CNS, item CN1C2C=C(c3ccccc3)CC1CC2 (configuration not stated) . > 100 µM

Return reported TGI for target or system SF-295 CNS, item Nc1ccccc1NC(=O)c1ccc(CN2CCC/C(=C\c3cccc(Cl)c3)C2=O)cc1 . 15.2 µM

Return reported TGI for target or system SF-295 CNS, item Cc1cc(NS(=O)(=O)c2ccc(NC(=O)c3cccc4c(Nc5ccc(S(=O)(=O)Nc6cc(C)on6)cc5)c5ccccc5nc34)cc2)no1 . > 100 µM

Return reported TGI for target or system SF-295 CNS, item O=c1[nH]c(SCc2c(Cl)c(Cl)c(Cl)c(Cl)c2Cl)nc(=S)[nH]1 . > 100 µM

Return reported TGI for target or system SF-295 CNS, item C#CCNC(=O)CC[C@]1(C)[C@H]2CC[C@@H]3[C@@H]([C@@](C)(O)CCC=C(C)C)CC[C@@]3(C)[C@]2(C)CC[C@H]1C(=C)C . > 100 µM

Return reported TGI for target or system SF-295 CNS, item CC(/C=C/c1ccc([N+](=O)[O-])o1)=N/N1CC(CN2CCOCC2)OC1=O (configuration not stated) . > 100 µM

Return reported TGI for target or system SF-295 CNS, item C=C1Oc2nc3ccccc3c(=O)n2C1(C)C . > 10 µM

Return reported TGI for target or system SF-295 CNS, item CC1(C)C2CCC3(OCCO3)C1C1OC12 (configuration not stated) . > 100 µM

Return reported TGI for target or system SF-295 CNS, item OCC1OC(n2nc(-c3ccccc3)nc2-c2cnccn2)C(O)C1O (configuration not stated) . > 100 µM

Return reported TGI for target or system SF-295 CNS, item O=c1cc(CC(O)(C(F)(F)Cl)C(F)(F)Cl)[nH]n1-c1ccccc1 . > 100 µM

Return reported TGI for target or system SF-295 CNS, item [N-]=[N+]=Nc1c([N+](=O)[O-])c(Cl)nc2ccccc12 . 38.5 µM

---

# Tested on: A549 NSCLC
# assay explanation: NCI tumour cell line growth inhibition, 48 h
Answer each item with its documented TGI.

Answer with reported TGI of Cc1ccc(CS(=O)(=O)C/N=c2\sc3ccccc3nc2/C=C(\O)c2ccc(Cl)cc2)cc1 > 10 µM

Answer with reported TGI of O=C1c2ccccc2C(=O)N1CCCCCCNOCCCN1C(=O)c2ccccc2C1=O > 100 µM

Answer with reported TGI of CC(/C=C/c1ccc([N+](=O)[O-])o1)=N/N1CC(CN2CCOCC2)OC1=O (stereo unspecified) 98.5 µM

Answer with reported TGI of Cc1ccc2c(=O)c(-c3nnc(N)s3)c[nH]c2n1 > 100 µM

Answer with reported TGI of N#CC(C#N)=CSc1ccccc1 > 100 µM

Answer with reported TGI of CCOP(=O)(OCC)C(Cc1ccc(OC)c(OC)c1)N=C(c1ccccc1)c1ccccc1 (stereo unspecified) > 100 µM

Answer with reported TGI of COc1cc(C(N)=O)cc(NC(=O)/C=C/c2ccccc2)c1OC > 100 µM

Answer with reported TGI of CCCCCC(=O)OCC1(CO)C/C(=C\CC(C(C)C)C(C)C)C(=O)O1 (stereo unspecified) > 100 µM

Answer with reported TGI of COP1(=O)NCc2ncccc2O1 (stereo unspecified) > 100 µM

Answer with reported TGI of CC1OC(OC2C(O)COC(OC3C(C)OC(OC4C(OC(=O)[C@]56CCC(C)(C)C[C@@H]5C5=CCC7[C@@]8(C)C[C@H](O)[C@H](OC9OC(CO)C(O)C(OC%10OC(CO)C(O)C(O)C%10O)C9O)[C@@](C)(CO)[C@@H]8CC[C@@]7(C)[C@]5(C)CC6)OCC(O)C4O)C(O)C3OC3OCC(O)C(O)C3O)C2O)C(O)C(O)C1O (stereo partly specified) 4.29 µM

Answer with reported TGI of CC1(C)CN=C(Nc2ccc(Cl)cc2)S1 > 100 µM

Answer with reported TGI of CC1(C)C[C@H]2C=C(C=O)[C@]34C[C@]3(C(=O)OC4O)[C@H]2C1 (stereo partly specified) 13.1 µM

Answer with reported TGI of COc1ccc2c(c1)nc1n2C(c2c(F)cccc2Cl)SC1 (stereo unspecified) > 50.6 µM

Answer with reported TGI of COc1ccc(-c2cc(/C=C3\C(=O)Nc4ccc(OC)cc43)[nH]n2)cc1 > 100 µM

Answer with reported TGI of O=c1c2ccccc2nc(-c2ccccc2)n1NC(=S)Nc1ccc(Cl)cc1[N+](=O)[O-] > 100 µM

Answer with reported TGI of CCOC(=O)c1cc2c([nH]1)C(=O)CC1=C2CCN1Cc1ccccc1 73.5 µM

Answer with reported TGI of Cc1nc2ccccc2c(=O)n1CC(=O)O > 100 µM

Answer with reported TGI of O=C(Nc1ccccc1Br)c1cccc([N+](=O)[O-])c1O > 100 µM

Answer with reported TGI of Cc1cc(C)cc(Sc2c([N+](=O)[O-])ncn2C)c1 > 100 µM

Answer with reported TGI of CC(=O)OC(C)(C)N=Nc1ccc(Br)cc1 > 100 µM

Answer with reported TGI of CN(C)CCNC(=O)c1cccc2nc3cccc(F)c3nc12 2.85 µM

Answer with reported TGI of C[C@H]1CC[C@@H]2[C@@H](C)[C@H]3[C@H](C[C@H]4[C@@H]5CC=C6C[C@@H](O)CC[C@]6(C)[C@H]5C[C@H](O)[C@]34C)N2C1 > 100 µM

Answer with reported TGI of CN(C)C=Nc1cccc2cnccc12 > 100 µM

Answer with reported TGI of NCC(NC(=O)OCc1ccccc1)C(=O)O (stereo unspecified) > 50 µM

Answer with reported TGI of Clc1ccc(OC2CCO2)cc1Cl (stereo unspecified) > 100 µM

Answer with reported TGI of Nc1ccccc1NC(=O)c1ccc(CN2CCC/C(=C\c3cccc(Cl)c3)C2=O)cc1 75.7 µM

Answer with reported TGI of O=C1c2ccccc2-c2c1c1ccccc1c(=O)n2CCCN1CCN(CCCn2c3c(c4ccccc4c2=O)C(=O)c2ccccc2-3)CC1 > 100 µM

Answer with reported TGI of CC[O-].Cc1ccc2cccc([O-])c2n1.Cc1ccc2cccc([O-])c2n1.Cc1ccc2cccc([O-])c2n1.[Ti+4] 20.6 µM

Answer with reported TGI of CCOC(=O)c1c(C)n2c(=O)cc(C)c3c(OC(C)=O)c(OC(C)=O)cc1c32 52.3 µM

Answer with reported TGI of CN1C2C=C(c3ccccc3)CC1CC2 (stereo unspecified) > 100 µM

Answer with reported TGI of O=C(Nc1ccccc1C(=O)O)/C(=C/c1ccccc1)NC(=O)c1ccccc1 > 100 µM

Answer with reported TGI of O=C1NC(=O)C(C(c2ccc(Cl)cc2)C2C(=O)NC(=O)NC2=O)C(=O)N1 > 100 µM

Answer with reported TGI of CCOC(=O)c1cc(C2CCN(Cc3ccccc3)C2=O)c(C(=O)C(=[N+]=[N-])C(C)=O)[nH]1 (stereo unspecified) > 100 µM

Answer with reported TGI of Cc1cc(-c2nc(-c3ccc(OC(F)(F)F)cc3)no2)nn1Cc1ccnc(N2CCN(C3CC3)CC2)c1 > 100 µM

Answer with reported TGI of CCC1CC(=O)N(SCC(N)C(=O)O)C1=O (stereo unspecified) > 100 µM

Answer with reported TGI of COc1cc2c3c(n(CCN(C)C)c(=O)c2cc1OC)-c1cc2c(cc1C3=O)OCO2 > 100 µM

Answer with reported TGI of C=C(C)[C@@H]1CCC2=C[C@@H](OC2=O)[C@@H](C(=C)C)C(=O)/C=C(/C)C(=O)C1 > 100 µM

Answer with reported TGI of Cc1cc(C(=O)N2CCN(Cc3ccccc3)CC2)c(C)o1 > 100 µM

Answer with reported TGI of Nc1ncnc2c1ncn2C1CCC(CO)O1 (stereo unspecified) > 100 µM

Answer with reported TGI of C#CCNC(=O)CC[C@]1(C)[C@H]2CC[C@@H]3[C@@H]([C@@](C)(O)CCC=C(C)C)CC[C@@]3(C)[C@]2(C)CC[C@H]1C(=C)C > 100 µM

Answer with reported TGI of Cc1ccccc1N=Nc1c(O)[nH]c2ccccc12 > 100 µM
